Molecular target: Tumor necrosis factor (Homo sapiens, UniProt P01375)
Sequence (P01375 whole entry): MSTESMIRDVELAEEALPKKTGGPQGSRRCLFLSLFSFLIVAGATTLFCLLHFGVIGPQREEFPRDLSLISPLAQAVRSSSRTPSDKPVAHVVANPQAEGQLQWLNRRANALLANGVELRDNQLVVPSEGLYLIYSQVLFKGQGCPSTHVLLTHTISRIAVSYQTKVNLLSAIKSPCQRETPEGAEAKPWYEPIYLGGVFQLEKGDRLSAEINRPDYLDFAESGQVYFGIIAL
Experiment: TNFa-triggered NF-kB activation inhibitors, SAR follow-up, cell-based, revised (AID 2337)
Assay type: functional
Activity calls are given as the source filed them. Cut-off read from the data, not from the text of the source: actives have a measured IC50 and inactives only a lower limit.
Answer with one of the outcomes given here: True for active, False for inactive

INPUT: Look up the recorded call for CCOc1cccc(C=NN=C(S)Nc2ccccc2[N+](=O)[O-])c1O in this test.
OUTPUT: True

INPUT: Lab log entry: COC(=O)c1c(NC(=O)C=Cc2cccs2)sc2c1CCC(C)C2 (centres undefined) — outcome as called in the assay?
OUTPUT: True

INPUT: Kindly provide the recorded test outcome for the following compound: COc1ccc(CNS(=O)(=O)c2ccc3c(c2)CC(C)N3C(=O)C2CC2)cc1 (centres undefined)
OUTPUT: False

INPUT: Status in this test for O=C(Nc1nc2ccccc2n1Cc1ccc(Cl)cc1)c1ccccc1 ?
OUTPUT: False
